Ref: ChEMBL document CHEMBL3997821

tested on: Staphylococcus aureus; experiment: Antibacterial activity against Staphylococcus aureus MTCC 96 after 24 hrs by well diffusion method; format: functional; conditions: MTCC 96, 24 h
Catalogue of MIC readings, one per entry.
recorded.metric: MIC (µg/mL)

INSERT INTO results (compound, system_tested, recorded_metric, cmp, measured_value) VALUES
  ('Cn1c2c(c(=O)n(C)c1=O)C(c1cn(-c3ccccc3)nc1-c1ccc(Cl)cc1)N(c1cccc([N+](=O)[O-])c1)C=N2 (centres undefined)', 'Staphylococcus aureus', 'MIC', '>', 125),
  ('Cn1c2c(c(=O)n(C)c1=O)C(c1cn(-c3ccccc3)nc1-c1ccc([N+](=O)[O-])cc1)N(c1ccc(Cl)cc1)C=N2 (centres undefined)', 'Staphylococcus aureus', 'MIC', '>', 125),
  ('Cc1ccc(N2C=Nc3c(c(=O)n(C)c(=O)n3C)C2c2cn(-c3ccccc3)nc2-c2cccs2)cc1 (centres undefined)', 'Staphylococcus aureus', 'MIC', '=', 15.6),
  ('Cc1ccc(-c2nn(-c3ccccc3)cc2C2c3c(n(C)c(=O)n(C)c3=O)N=CN2c2cccc([N+](=O)[O-])c2)cc1 (centres undefined)', 'Staphylococcus aureus', 'MIC', '>', 125),
  ('Cc1ccc(-c2nn(-c3ccccc3)cc2C2c3c(n(C)c(=O)n(C)c3=O)N=CN2c2ccc(Cl)cc2)cc1 (centres undefined)', 'Staphylococcus aureus', 'MIC', '=', 7.8),
  ('Cn1c2c(c(=O)n(C)c1=O)C(c1cn(-c3ccccc3)nc1-c1ccccc1)N(c1ccccc1)C=N2 (centres undefined)', 'Staphylococcus aureus', 'MIC', '=', 31.2),
  ('COc1ccc(N2C=Nc3c(c(=O)n(C)c(=O)n3C)C2c2cn(-c3ccccc3)nc2-c2ccc([N+](=O)[O-])cc2)cc1 (centres undefined)', 'Staphylococcus aureus', 'MIC', '=', 31.2),
  ('Cn1c2c(c(=O)n(C)c1=O)C(c1cn(-c3ccccc3)nc1-c1ccc([N+](=O)[O-])cc1)N(c1ccccc1)C=N2 (centres undefined)', 'Staphylococcus aureus', 'MIC', '>', 125),
  ('COc1ccc(N2C=Nc3c(c(=O)n(C)c(=O)n3C)C2c2cn(-c3ccccc3)nc2-c2ccc(C)cc2)cc1 (centres undefined)', 'Staphylococcus aureus', 'MIC', '>', 125);
